# protocol.summary: MTT viability assay after treatment with Fluc mRNA/amino lipidated peptoid formulations
# Assay type: cell-based
# condition.notes: human, HeLa cells, Relative Viability (%) 2% PEG
# Procedure: Cellular viability was measured following treatment with Fluc mRNA/amino lipidated peptoid formulations by a traditional MTT viability assay. […] In this assay, cells were first treated with peptoid formulations at a final mRNA concentration of 100 ng/well for 8 hours. […]
This section presents compounds with their documented viability at 8 h, 500 ng/well values.
Numeric only. Scale: %

compound: CCCCCCCCCCN(CC(N)=O)C(=O)CN(CCCCCCCCCC)C(=O)CN(CCCCCCCCCC)C(=O)CN(CCCCCCCCCC)C(=O)CN(CCCCCCCCCC)C(=O)CN(CCc1ccccc1)C(=O)CN(CCc1ccccc1)C(=O)CN(CCN)C(=O)CN(CCc1ccccc1)C(=O)CN(CCc1ccccc1)C(=O)CN(CCN)C(=O)CN(CCc1ccccc1)C(=O)CN(CCc1ccccc1)C(=O)CN(CCN)C(=O)CN(CCc1ccccc1)C(=O)CN(CCc1ccccc1)C(=O)CNCCN [Compound 21]
viability at 8 h, 500 ng/well / %: 109

Consider now this further compound.
Could you tell me which viability at 8 h, 500 ng/well is on file for CCCCCCCCCCN(CC(=O)N(CC(=O)N(CCCCCCCCCC)CC(=O)N(CC(N)=O)CC(CC)CCCC)CC(CC)CCCC)C(=O)CN(CCc1ccccc1)C(=O)CN(CCc1ccccc1)C(=O)CN(CCN)C(=O)CN(CCc1ccccc1)C(=O)CN(CCc1ccccc1)C(=O)CN(CCN)C(=O)CN(CCc1ccccc1)C(=O)CN(CCc1ccccc1)C(=O)CNCCN (centres unmarked) [Compound 24] ?
112

====

# Tested on: HeLa cells
# protocol.summary: In vitro expression of firefly luciferase (Fluc) after treatment with Fluc mRNA/amino lipidated peptoid formulations, no PEG or 2% DMG-PEG2000
# Assay type: cell-based
# condition.notes: with 2% (w/w) DMG-PEG2000, peptoid:mRNA 5:1, 6 h after treatment
experimental.endpoint: Luciferase Expression (RLU) 6 h
Numeric only. Scale: RLU

Could you tell me which Luciferase Expression (RLU) 6 h is on file for CCCCCCCCN(CC(N)=O)C(=O)CN(CCCCCCCC)C(=O)CN(CCc1ccccc1)C(=O)CN(CCc1ccccc1)C(=O)CN(CCN)C(=O)CN(CCc1ccccc1)C(=O)CN(CCc1ccccc1)C(=O)CN(CCN)C(=O)CN(CCc1ccccc1)C(=O)CN(CCc1ccccc1)C(=O)CNCCN ?
2.09E+02

====

This section presents compounds with their documented % Encapsulation values.
# protocol.summary: mRNA encapsulation by fluorescence of Qubit RNA HS dye before and after lysis with Triton X-100
# Type: physicochemical
# condition.notes: percentage of mRNA encapsulation; Fluc mRNA/peptoid formulation, 5:1 mass ratio
Numeric only. Scale: %

smiles.input: CCCCCCCCCCN(CC(N)=O)C(=O)CN(CCCCCCCCCC)C(=O)CN(CCc1ccccc1)C(=O)CN(CCc1ccccc1)C(=O)CN(CCN)C(=O)CN(CCc1ccccc1)C(=O)CN(CCc1ccccc1)C(=O)CNCCN
% Encapsulation (%): 92.6

smiles.input: CCCCCCCCCCN(CC(N)=O)C(=O)CN(CCCCCCCCCC)C(=O)CN(CCc1ccccc1)C(=O)CN(CCc1ccccc1)C(=O)CNCCN
% Encapsulation (%): 73.9

smiles.input: CCCCCCCCN(CC(N)=O)C(=O)CN(CCCCCCCC)C(=O)CN(CCc1ccccc1)C(=O)CN(CCc1ccccc1)C(=O)CN(CCN)C(=O)CN(CCc1ccccc1)C(=O)CN(CCc1ccccc1)C(=O)CN(CCN)C(=O)CN(CCc1ccccc1)C(=O)CN(CCc1ccccc1)C(=O)CNCCN
% Encapsulation (%): 90.1

smiles.input: CCCCCCCCCCN(CC(N)=O)C(=O)CN(CCCCCCCCCC)C(=O)CN(CCc1ccccc1)C(=O)CN(CCc1ccccc1)C(=O)CN(CCN)C(=O)CN(CCc1ccccc1)C(=O)CN(CCc1ccccc1)C(=O)CN(CCN)C(=O)CN(CCc1ccccc1)C(=O)CN(CCc1ccccc1)C(=O)CNCCN
% Encapsulation (%): 100.3

smiles.input: CCCCCCCCCCN(CC(N)=O)C(=O)CN(CCCCCCCCCC)C(=O)CN(CCCCCCCCCC)C(=O)CN(CCCCCCCCCC)C(=O)CN(CCc1ccccc1)C(=O)CN(CCc1ccccc1)C(=O)CN(CCNC)C(=O)CN(CCc1ccccc1)C(=O)CN(CCc1ccccc1)C(=O)CN(CCNC)C(=O)CN(CCc1ccccc1)C(=O)CN(CCc1ccccc1)C(=O)CNCCNC
% Encapsulation (%): 8.4

smiles.input: CCCCCCCCCCN(CC(N)=O)C(=O)CN(CCCCCCCCCC)C(=O)CN(CCCCCCCCCC)C(=O)CN(CCCCCCCCCC)C(=O)CN(CCCCCCCCCC)C(=O)CN(CCCCCCCCCC)C(=O)CN(CCCCCCCCCC)C(=O)CN(CCc1ccccc1)C(=O)CN(CCc1ccccc1)C(=O)CN(CCN)C(=O)CN(CCc1ccccc1)C(=O)CN(CCc1ccccc1)C(=O)CN(CCN)C(=O)CN(CCc1ccccc1)C(=O)CN(CCc1ccccc1)C(=O)CNCCN
% Encapsulation (%): 3.9

Could you tell me which % Encapsulation is on file for CCCCCCCCCCN(CC(N)=O)C(=O)CN(CCCCCCCCCC)C(=O)CN(CCCCCCCCCC)C(=O)CN(CCCCCCCCCC)C(=O)CN(CCc1ccccc1)C(=O)CN(CCc1ccccc1)C(=O)CN(CC1CCNCC1)C(=O)CN(CCc1ccccc1)C(=O)CN(CCc1ccccc1)C(=O)CN(CC1CCNCC1)C(=O)CN(CCc1ccccc1)C(=O)CN(CCc1ccccc1)C(=O)CN(CC1CCNCC1)C(=O)CN(CCc1ccccc1)C(=O)CN(CCc1ccccc1)C(=O)CNCC1CCNCC1 ?
50.9
